target: recombinant N-terminal GST-tagged human Rho kinase 1 (ROCK1, amino acids 1-535) (Homo sapiens); construct: ROCK1, amino acids 1-535; purchased Invitrogen Inc. PV-3691; test: In vitro Rho kinase assay (luciferase-based ATP consumption), ROCK1; assay type: biochemical; conditions: recombinant GST-tagged human ROCK1, luciferase-based ATP consumption; read-out: ROCK1 IC50
Sequence (Q13464 1-535): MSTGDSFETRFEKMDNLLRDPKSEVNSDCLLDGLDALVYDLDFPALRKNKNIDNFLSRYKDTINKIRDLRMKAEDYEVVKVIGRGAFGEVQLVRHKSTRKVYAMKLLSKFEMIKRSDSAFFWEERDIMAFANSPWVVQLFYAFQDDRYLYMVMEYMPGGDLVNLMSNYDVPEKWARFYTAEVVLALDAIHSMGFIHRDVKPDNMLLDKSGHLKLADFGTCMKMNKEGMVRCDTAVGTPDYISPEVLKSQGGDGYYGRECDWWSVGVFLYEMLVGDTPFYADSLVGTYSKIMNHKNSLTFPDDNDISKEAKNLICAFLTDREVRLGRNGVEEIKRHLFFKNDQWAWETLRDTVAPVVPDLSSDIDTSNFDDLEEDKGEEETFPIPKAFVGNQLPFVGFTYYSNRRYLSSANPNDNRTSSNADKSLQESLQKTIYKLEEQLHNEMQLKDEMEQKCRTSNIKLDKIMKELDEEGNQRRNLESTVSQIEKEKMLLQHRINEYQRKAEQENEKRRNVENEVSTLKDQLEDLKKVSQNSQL
pIC50: −log10 of the molar value.
Reported pIC50 values for the following compounds.
property label: pIC50

1. Cc1c(-c2ccnc(N)n2)sc2ccc(CNC(=O)c3ccccc3[N+](=O)[O-])cc12 [Example 179] ... < 5.30
2. Cc1c(-c2ccnc(N)n2)sc2ccc(CNC(=O)c3cc(O)c(O)c(O)c3)cc12 [Example 185] ... < 5.30
3. Cc1ccccc1CC(=O)NCc1ccc2sc(-c3ccnc(N)n3)c(C)c2c1 [Example 132] ... > 5.30
4. Cc1c(-c2ccnc(N)n2)sc2ccc(CNC(=O)C3CCCO3)cc12 (centres unmarked) [Example 106] ... < 5.30
5. Cc1c(-c2ccnc(N)n2)sc2ccc(CN)cc12 [Example 33] ... > 5.30
6. Cc1c(-c2ccnc(N)n2)sc2ccc(CNC(=O)c3cc(C(C)C)cc(C(C)C)c3O)cc12 [Example 298] ... > 5.30
7. Cc1c(-c2ccnc(N)n2)sc2ccc(CNC(=O)C(Cc3ccc(O)cc3)NC(=O)OC(C)(C)C)cc12 (centres unmarked) [Example 328] ... > 5.30
8. Cc1c(-c2ccnc(N)n2)sc2ccc(CNC(=O)c3cc(F)cc(F)c3)cc12 [Example 156] ... > 5.30
9. COc1cccc(OC)c1C(=O)NCc1ccc2sc(-c3ccnc(N)n3)c(C)c2c1 [Example 220] ... < 5.30
10. Cc1c(-c2ccnc(N)n2)sc2ccc(CNC(=O)C3CCCCC3)cc12 [Example 115] ... < 5.30
11. Cc1c(-c2ccnc(N)n2)sc2ccc(Cc3cccc(C(F)(F)F)c3)cc12 [Example 39] ... < 5.30
12. Cc1c(-c2ccnc(N)n2)sc2ccc(Cc3cccc(C(=O)Nc4ccc(OCCN5CCCCC5)cc4)c3)cc12 [Example 44] ... > 5.30
13. Cc1c(-c2ccncc2)sc2ccc(Cl)cc12 [Example 4] ... < 5.30
14. Cc1c(-c2ccnc(N)n2)sc2ccc(CNC(=O)c3ccc(C=O)cc3)cc12 [Example 130] ... > 5.30
15. Cc1c(-c2ccnc(N)n2)sc2ccc(CNC(=O)C(Cc3ccccn3)NC(=O)OC(C)(C)C)cc12 (centres unmarked) [Example 326] ... > 5.30
16. Cc1c(-c2ccnc3[nH]ccc23)sc2ccc(Cl)cc12 [Example 6] ... < 5.30
17. Cc1c(-c2ccnc(N)n2)sc2ccc(CNC(=O)C=Cc3ccc(Cl)cc3)cc12 [Example 224] ... < 5.30

Origin of the recorded values: patent US20080021026A1
